Biological target: T1, monkey Trop2 protein (Sino Biological, #90893-C08H) (monkey, UniProt A0A2K5UE71 27-274)
T1 construct: bought protein; also called monkey Trop2 protein antigen (His tag)
T1 sequence: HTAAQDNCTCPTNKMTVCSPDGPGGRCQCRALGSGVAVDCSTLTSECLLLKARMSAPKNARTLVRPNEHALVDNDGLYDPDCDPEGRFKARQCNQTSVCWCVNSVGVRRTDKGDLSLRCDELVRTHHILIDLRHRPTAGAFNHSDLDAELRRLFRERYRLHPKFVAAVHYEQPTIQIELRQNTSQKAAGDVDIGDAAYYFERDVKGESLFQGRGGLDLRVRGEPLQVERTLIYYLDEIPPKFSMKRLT
Test: BLI, Octet RED96, AHC sensor
Experimental: Specifically, a human TROP2 protein (Sino Biological, #10428-H08H) or a monkey Trop2 protein (Sino Biological, #90893-C08H) was diluted to 200 nM with a PBS buffer (pH 7.4) containing 0.1% (w/w) BSA and 0.02% (v/v) tween 20, and incubated with the AHC sensor respectively. […] The association and dissociation signals between the Trop2 antibody and the human Trop2 protein or monkey Trop2 protein were recorded by Octet Red 96 in real time. […]
Response overview
Please give the numeric answer without any surrounding text.

PR001128 (antibody, human IgG1, kappa, V domains shown, fully human IgG1/kappa; also called antibody No. (1)) VH: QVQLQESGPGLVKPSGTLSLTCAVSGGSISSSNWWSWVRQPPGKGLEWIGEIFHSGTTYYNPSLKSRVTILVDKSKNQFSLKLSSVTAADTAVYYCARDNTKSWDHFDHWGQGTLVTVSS VL: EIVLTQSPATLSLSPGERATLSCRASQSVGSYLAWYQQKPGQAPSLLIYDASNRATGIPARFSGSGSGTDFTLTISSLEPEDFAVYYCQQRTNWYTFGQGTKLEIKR; 0.384

From here, focus on the item given below.
Which Response value belongs to PR001132 (antibody, human IgG1, kappa, V domains shown, fully human IgG1/kappa; also called antibody No. (4)) VH: QVELVESGGGVVQPGRSLRLSCGASGFTFSSYNMYWVRQAPGKGLEWVAGIWDDGNNKYYANSVKGRFTISRDNSKNTLYLQMNSLRTEDTALYYCAKDGWGSYGEYFQHWGQGTLVTVSS VL: DIQMTQSPSSLSASVGERVTITCRASQNINSYLSWYQQKPGKAPKLLIYAASSLQNGVPSRFSGSGSGTDFTLTISSLQPEDFATYYCQQSFSTPPITFGQGTRLEIKR ?
0.418
